Recorded fold change of affinity by entry
# Tgt: T1, Human CD137 ECD (human)
# T1 construct: also called 4-1BB
# Assay Details: SPR, vs parent H183/L072
Property Name: fold change of affinity

# Binder, Result
records = [
    ("dBBDu183H V63H / dBBDu072L (antibody, name in Kabat numbering, V domains shown, as m1, one VH change) VH: QVQLVESGGGLVQPGRSLRLSCAASGFTFSNAWMHWVRQAPGKGLEWVAQIKDKGNAYAAYYAPSHKGRFTISRDDSKNSIYLQMNSLKTEDTAVYYCHYVHYASASTVLPAFGVDAWGQGTTVTVSS VL: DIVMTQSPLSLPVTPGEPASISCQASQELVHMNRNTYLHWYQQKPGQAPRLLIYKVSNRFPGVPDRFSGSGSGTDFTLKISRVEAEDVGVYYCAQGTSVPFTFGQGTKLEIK", "1 fold"),
    ("dBBDu183H A98E / dBBDu072L (antibody, name in Kabat numbering, V domains shown, as m1, one VH change) VH: QVQLVESGGGLVQPGRSLRLSCAASGFTFSNAWMHWVRQAPGKGLEWVAQIKDKGNAYAAYYAPSVKGRFTISRDDSKNSIYLQMNSLKTEDTAVYYCHYVHYESASTVLPAFGVDAWGQGTTVTVSS VL: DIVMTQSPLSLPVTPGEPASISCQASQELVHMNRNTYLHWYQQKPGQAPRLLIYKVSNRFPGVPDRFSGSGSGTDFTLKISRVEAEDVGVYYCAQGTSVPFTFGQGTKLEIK", "0.3 fold"),
    ("dBBDu183H K64R / dBBDu072L (antibody, name in Kabat numbering, V domains shown, as m1, one VH change) VH: QVQLVESGGGLVQPGRSLRLSCAASGFTFSNAWMHWVRQAPGKGLEWVAQIKDKGNAYAAYYAPSVRGRFTISRDDSKNSIYLQMNSLKTEDTAVYYCHYVHYASASTVLPAFGVDAWGQGTTVTVSS VL: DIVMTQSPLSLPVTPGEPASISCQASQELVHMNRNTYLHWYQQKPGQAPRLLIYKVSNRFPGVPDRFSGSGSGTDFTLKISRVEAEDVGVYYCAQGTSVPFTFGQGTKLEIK", "1.1 fold"),
    ("dBBDu183H P61Q / dBBDu072L (antibody, name in Kabat numbering, V domains shown, as m1, one VH change) VH: QVQLVESGGGLVQPGRSLRLSCAASGFTFSNAWMHWVRQAPGKGLEWVAQIKDKGNAYAAYYAQSVKGRFTISRDDSKNSIYLQMNSLKTEDTAVYYCHYVHYASASTVLPAFGVDAWGQGTTVTVSS VL: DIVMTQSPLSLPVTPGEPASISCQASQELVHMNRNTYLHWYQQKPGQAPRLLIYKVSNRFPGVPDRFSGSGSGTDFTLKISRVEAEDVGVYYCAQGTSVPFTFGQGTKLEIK", "0.6 fold"),
    ("dBBDu183H A100K / dBBDu072L (antibody, name in Kabat numbering, V domains shown, as m1, one VH change) VH: QVQLVESGGGLVQPGRSLRLSCAASGFTFSNAWMHWVRQAPGKGLEWVAQIKDKGNAYAAYYAPSVKGRFTISRDDSKNSIYLQMNSLKTEDTAVYYCHYVHYASKSTVLPAFGVDAWGQGTTVTVSS VL: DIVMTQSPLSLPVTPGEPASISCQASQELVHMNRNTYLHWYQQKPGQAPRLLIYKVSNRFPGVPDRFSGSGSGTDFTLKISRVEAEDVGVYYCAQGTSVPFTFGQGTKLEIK", "1.1 fold"),
]
